Origin of values: patent US7115624B1

- SYSTEM TESTED: PTPα (Homo sapiens, UniProt P18433)
- Construct: PTPα D1
- Sequence (P18433 241-501 limits assumed): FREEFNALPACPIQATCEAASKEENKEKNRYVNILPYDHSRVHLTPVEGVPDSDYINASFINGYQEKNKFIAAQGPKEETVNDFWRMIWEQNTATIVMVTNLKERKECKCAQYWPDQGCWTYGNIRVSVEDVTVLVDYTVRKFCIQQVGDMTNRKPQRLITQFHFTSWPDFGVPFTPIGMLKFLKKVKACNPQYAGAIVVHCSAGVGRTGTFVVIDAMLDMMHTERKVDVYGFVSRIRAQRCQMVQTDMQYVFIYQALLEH
- METHOD: PTPase inhibition, p-nitrophenyl phosphate substrate, Ki
- Format: biochemical
- CONDITION SUMMARY: pH 7.0 (Table 5); read-out: Ki values, PTPα
READOUT NAME: pKi
Field pKi (float): negative decimal logarithm of the concentration in molar.

Find pKi (PTPα (Homo sapiens, UniProt P18433)) for the entry O=C(O)C(=O)Nc1sc2c(c1C(=O)O)CCOC2COC1=NS(=O)(=O)c2ccccc21 (stereo not shown)
3.15

* * *

- SYSTEM TESTED: PTPβ (Homo sapiens, UniProt P23467)
- Sequence (P23467 1703-1963 limits assumed): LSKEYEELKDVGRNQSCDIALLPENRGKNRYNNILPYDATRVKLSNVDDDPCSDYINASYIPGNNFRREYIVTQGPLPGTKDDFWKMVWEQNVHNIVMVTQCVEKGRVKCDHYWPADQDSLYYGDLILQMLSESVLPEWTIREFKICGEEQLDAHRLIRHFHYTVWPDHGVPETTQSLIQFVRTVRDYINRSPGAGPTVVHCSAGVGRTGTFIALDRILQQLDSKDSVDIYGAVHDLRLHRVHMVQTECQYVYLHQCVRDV
- METHOD: PTPase inhibition, p-nitrophenyl phosphate substrate, Ki
- Assay type: biochemical
- CONDITION SUMMARY: pH 7 (Table 3); read-out: Ki values, PTPβ
READOUT NAME: Ki (µM)
Numbers only; they are read as µM.

Give its Ki value. Item: O=C(O)C(=O)Nc1sc2c(c1C(=O)O)CC(CN1C(=O)c3cccc(O)c3C1=O)OC2 (centres unmarked)
1.1

Now examine the next entry.
For the compound shown here, COc1ccc2c(c1)C(=O)N(CC1OCCc3c1sc(NC(=O)C(=O)O)c3C(=O)O)C2=O (centres unmarked) , give the reported Ki.
8.9

* * *

- SYSTEM TESTED: PTP1B G259M (Homo sapiens, UniProt P18031, G259M)
- METHOD: Enzyme kinetic analysis with mutant PTPs, Ki
- Type: biochemical
- CONDITION SUMMARY: pH 7.0
READOUT NAME: pKi
// returns pKi (minus log10 of molar concentration), number only

Given O=C(O)C(=O)Nc1sc2c(c1C(=O)O)CCOC2COC1=NS(=O)(=O)c2ccccc21 (stereo not shown) , state its recorded pKi.
4.26

* * *

Measured pKi of individual entries
- SYSTEM TESTED: PTPε (Homo sapiens, UniProt P23469)
- Construct: PTPε D1
- Sequence (P23469 135-394 limits assumed): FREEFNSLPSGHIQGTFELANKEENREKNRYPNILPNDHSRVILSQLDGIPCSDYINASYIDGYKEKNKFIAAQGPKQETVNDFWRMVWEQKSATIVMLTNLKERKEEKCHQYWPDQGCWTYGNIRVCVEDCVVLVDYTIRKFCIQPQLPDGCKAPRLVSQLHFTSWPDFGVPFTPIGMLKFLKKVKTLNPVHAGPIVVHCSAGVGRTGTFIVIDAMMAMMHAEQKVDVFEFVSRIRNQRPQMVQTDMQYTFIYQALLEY
- METHOD: PTPase inhibition, p-nitrophenyl phosphate substrate, Ki
- Assay type: biochemical
- CONDITION SUMMARY: pH 7; D1 (Table 3); read-out: Ki values, PTPε D1
By convention, pKi is the negative base-10 log of a molar concentration.

Could you share which pKi value was measured for O=C(O)C(=O)Nc1sc2c(c1C(=O)O)CC(CN1C(=O)c3cccc(O)c3C1=O)OC2 (centres unmarked) ?
4.96

Consider the record given below.
Reported pKi, compound COc1ccc2c(c1)C(=O)N(CC1OCCc3c1sc(NC(=O)C(=O)O)c3C(=O)O)C2=O (centres unmarked) : ____
3.48

* * *

- SYSTEM TESTED: PTP1B (Homo sapiens)
- METHOD: PTPase inhibition, p-nitrophenyl phosphate substrate, Ki
- Format: biochemical
- CONDITION SUMMARY: pH 7 (Table 6); read-out: Ki, PTP1B residue 48 Asp
READOUT NAME: pKi
# reply with the number alone; pKi is -log10 of concentration in mol/L

A selection of reference data follows.
Form field: reported pKi of O=C(O)C(=O)Nc1sc2c(c1C(=O)O)CC(CN1C(=O)c3ccccc3C1=O)NC2 (stereo not shown)
7.07

Consider the compound shown here: CCOC(=O)N1Cc2sc(NC(=O)C(=O)O)c(C(=O)O)c2CC1CN1C(=O)c2ccccc2C1=O (stereo not shown) What is its recorded pKi?
6.60

Query (compound): O=C(O)C(=O)Nc1sc2c(c1C(=O)O)CC(CN1C(=O)c3cccc(O)c3C1=O)NC2 (stereo not shown) ; field requested: pKi
5.92

Now examine the next entry.
So what's the measured pKi for this one? O=C(O)C(=O)Nc1sc2c(c1C(=O)O)C[C@@H](CN1C(=O)c3ccccc3C1=O)NC2
7.15

* * *

- SYSTEM TESTED: CD45 (Homo sapiens, UniProt P08575)
- Sequence (P08575 599-1306 limits assumed, species assumed): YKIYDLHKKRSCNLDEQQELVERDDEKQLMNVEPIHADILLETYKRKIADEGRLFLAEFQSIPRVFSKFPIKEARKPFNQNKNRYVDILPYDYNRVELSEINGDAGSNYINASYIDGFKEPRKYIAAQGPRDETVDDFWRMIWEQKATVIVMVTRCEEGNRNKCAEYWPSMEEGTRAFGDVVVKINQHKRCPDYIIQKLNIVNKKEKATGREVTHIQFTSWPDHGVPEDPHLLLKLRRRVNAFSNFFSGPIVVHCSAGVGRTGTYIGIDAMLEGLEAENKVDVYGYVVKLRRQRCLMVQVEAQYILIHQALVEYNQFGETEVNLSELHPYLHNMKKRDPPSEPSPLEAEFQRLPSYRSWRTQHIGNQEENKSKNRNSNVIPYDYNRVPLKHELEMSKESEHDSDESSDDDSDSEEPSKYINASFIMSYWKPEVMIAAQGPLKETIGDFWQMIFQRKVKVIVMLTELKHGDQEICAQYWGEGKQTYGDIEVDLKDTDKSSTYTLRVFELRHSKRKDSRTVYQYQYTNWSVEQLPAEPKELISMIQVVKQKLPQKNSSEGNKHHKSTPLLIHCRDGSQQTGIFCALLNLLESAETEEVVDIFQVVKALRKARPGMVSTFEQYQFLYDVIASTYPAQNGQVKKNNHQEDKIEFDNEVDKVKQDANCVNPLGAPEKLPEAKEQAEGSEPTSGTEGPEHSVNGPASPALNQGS
- METHOD: PTPase inhibition, p-nitrophenyl phosphate substrate, Ki
- Assay type: biochemical
- CONDITION SUMMARY: pH 7.0 (Table 5); read-out: Ki values, CD45
READOUT NAME: pKi
Please note pKi is a logarithmic value: minus log10 of concentration in mol/L. Answer with that number alone.

Entry O=C(O)C(=O)Nc1sc2c(c1C(=O)O)CCOC2COC1=NS(=O)(=O)c2ccccc21 (stereo not shown) [Compound N] has what pKi?
3.30

* * *

- SYSTEM TESTED: PTPβ (Homo sapiens, UniProt P23467)
- METHOD: PTPase inhibition, p-nitrophenyl phosphate substrate, Ki
- Type: biochemical
- CONDITION SUMMARY: pH 7 (Table 6); read-out: Ki, PTP β residue 48 Asn
READOUT NAME: Ki (µM)
Number only, in µM; omit the unit.

Some compounds with recorded Ki:
Field request: Ki | item: O=C(O)C(=O)Nc1sc2c(c1C(=O)O)CC(CN1C(=O)c3ccccc3C1=O)NC2 (stereo not shown)
8.6

Fill in: Ki of O=C(O)C(=O)Nc1sc2c(c1C(=O)O)CC(CN1C(=O)c3cccc(O)c3C1=O)NC2 (stereo not shown) is ___
107

Look up Ki for this compound: CCOC(=O)N1Cc2sc(NC(=O)C(=O)O)c(C(=O)O)c2CC1CN1C(=O)c2ccccc2C1=O (stereo not shown)
47

Could you now look at the following compound, please?
State the recorded Ki for this entry: O=C(O)C(=O)Nc1sc2c(c1C(=O)O)C[C@@H](CN1C(=O)c3ccccc3C1=O)NC2
8

* * *

- SYSTEM TESTED: PTPα (Homo sapiens, UniProt P18433)
- Construct: PTPα D1
- METHOD: PTPase inhibition, p-nitrophenyl phosphate substrate, Ki
- Assay type: biochemical
- CONDITION SUMMARY: pH 7; D1 (Table 3); read-out: Ki values, PTPα D1
READOUT NAME: Ki (µM)
Output spec: scalar in µM, unitless text.

Some molecules with known Ki results, for comparison:
I would be grateful if you could share the reported Ki for O=C(O)C(=O)Nc1sc2c(c1C(=O)O)CC(CN1C(=O)c3cccc(O)c3C1=O)OC2 (stereo not drawn) [Example 4] .
93

Fill in: Ki of COc1ccc2c(c1)C(=O)N(CC1OCCc3c1sc(NC(=O)C(=O)O)c3C(=O)O)C2=O (stereo not drawn) [Example 26] is ___
620

More entries:
What does the data say about its Ki? Entry: O=C(O)C(=O)Nc1sc2c(c1C(=O)O)CCOC2 [Example 2-OTPA]
1100

* * *

- SYSTEM TESTED: SHP-1 (Homo sapiens, UniProt P29350)
- Sequence (P29350 whole entry): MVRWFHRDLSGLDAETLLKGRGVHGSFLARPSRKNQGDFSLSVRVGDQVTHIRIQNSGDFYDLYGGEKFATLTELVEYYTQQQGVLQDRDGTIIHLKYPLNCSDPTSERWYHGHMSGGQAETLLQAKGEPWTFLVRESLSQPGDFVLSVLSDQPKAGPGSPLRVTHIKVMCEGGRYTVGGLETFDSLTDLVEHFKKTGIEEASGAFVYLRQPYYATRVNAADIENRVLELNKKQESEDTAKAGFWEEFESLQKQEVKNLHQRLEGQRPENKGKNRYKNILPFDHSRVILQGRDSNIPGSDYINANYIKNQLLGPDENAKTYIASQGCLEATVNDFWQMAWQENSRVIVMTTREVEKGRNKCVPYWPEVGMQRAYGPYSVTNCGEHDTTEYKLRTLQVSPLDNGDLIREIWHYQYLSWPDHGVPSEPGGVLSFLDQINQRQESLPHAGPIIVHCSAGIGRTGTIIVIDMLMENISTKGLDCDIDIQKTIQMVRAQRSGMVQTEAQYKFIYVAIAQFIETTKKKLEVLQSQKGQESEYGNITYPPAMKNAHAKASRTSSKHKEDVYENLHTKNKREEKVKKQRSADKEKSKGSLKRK
READOUT NAME: pKi
Scale: pKi equals -log10([C]), with [C] in mol/L.

Recall the recorded pKi for O=C(O)C(=O)Nc1sccc1C(=O)O with SHP-1 (Homo sapiens, UniProt P29350) and state it.
4.22

* * *

- METHOD: pKa of the tetrahydropyridine ring
- Assay type: physicochemical
- CONDITION SUMMARY: positively charged tetrahydropyridine ring
READOUT NAME: pKa

Could you tell me which pKa is on file for O=C(O)C(=O)Nc1sc2c(c1C(=O)O)CCNC2 ?
> 10

* * *

- SYSTEM TESTED: PTP1B G259Q (Homo sapiens, UniProt P18031, G259Q)
- Sequence (P18031 1-435 G259Q): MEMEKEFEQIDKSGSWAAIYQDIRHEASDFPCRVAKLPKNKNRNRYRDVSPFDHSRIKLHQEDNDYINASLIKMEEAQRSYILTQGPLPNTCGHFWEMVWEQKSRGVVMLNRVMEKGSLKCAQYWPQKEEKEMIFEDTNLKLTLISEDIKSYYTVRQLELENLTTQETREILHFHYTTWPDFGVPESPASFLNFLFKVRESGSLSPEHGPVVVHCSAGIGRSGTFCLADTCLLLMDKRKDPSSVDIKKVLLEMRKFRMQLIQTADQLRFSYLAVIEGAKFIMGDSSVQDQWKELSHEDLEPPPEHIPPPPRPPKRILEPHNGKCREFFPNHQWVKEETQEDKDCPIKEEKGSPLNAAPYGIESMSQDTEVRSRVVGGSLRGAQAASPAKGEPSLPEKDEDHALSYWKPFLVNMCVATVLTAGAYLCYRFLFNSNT
- METHOD: Enzyme kinetic analysis with mutant PTPs, Ki
- CONDITION SUMMARY: pH 7.0
READOUT NAME: pKi
// scale note: pKi = -log10(conc_M); give the bare number

Name the reported pKi value associated with the molecule O=C(O)C(=O)Nc1sc2c(c1C(=O)O)CCOC2COC1=NS(=O)(=O)c2ccccc21 (stereo not shown)
4.19

* * *

- SYSTEM TESTED: UniProt P18031
- Sequence (P18031 1-321): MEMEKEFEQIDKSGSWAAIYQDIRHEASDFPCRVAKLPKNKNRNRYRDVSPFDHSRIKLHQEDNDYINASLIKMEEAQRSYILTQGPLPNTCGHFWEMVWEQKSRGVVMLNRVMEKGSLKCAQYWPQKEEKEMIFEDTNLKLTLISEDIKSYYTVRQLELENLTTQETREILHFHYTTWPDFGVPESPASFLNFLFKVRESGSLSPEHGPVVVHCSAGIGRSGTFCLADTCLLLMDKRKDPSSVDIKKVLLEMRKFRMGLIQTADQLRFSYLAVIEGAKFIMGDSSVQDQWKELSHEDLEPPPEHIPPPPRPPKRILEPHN
- METHOD: PTPase inhibition, p-nitrophenyl phosphate substrate, Ki
- Type: biochemical
- CONDITION SUMMARY: pH 7.0; wt (Table 4); read-out: Ki values, PTP1B wt
READOUT NAME: Ki
Express your answer as a number followed by its unit.

I would be grateful if you could share the reported Ki for O=C(O)C(=O)Nc1sc2c(c1C(=O)O)CCOC2COC1=NS(=O)(=O)c2ccccc21 (stereo not shown) [Compound N] .
400 nM
